- tested.on: human ferroportin (Fpn-HaloTag fusion protein) (Homo sapiens)
- Construct: expressed in transfected cells
- measurement.description: ferroportin internalization assay (inhibition of hepcidin-induced internalization of Fpn, MDCK-FPN-HaloTag cells)
- Assay type: cell-based
- test.context: 10 μM substance conc., hepcidin-induced Fpn internalization
measured.parameter: I [%] (median inhibition [%] at 10 μM substance conc.)

- compound: "COc1cc(C(=O)Oc2c(CN3CCOCC3)cc(Cl)c3cccnc23)cc(OC)c1OC"
  measured: "<50%"
- compound: "Oc1c(C(c2ccccn2)N2CCOCC2)ccc2cccnc12 (stereo not drawn)"
  measured: ">50%"
- compound: "O=C(Oc1c(CN2CCOCC2)cc(Cl)c2cccnc12)c1ccco1"
  measured: "<50%"
- compound: "Oc1c(C(Nc2ccccn2)c2cccnc2)cc(Cl)c2cccnc12 (stereo not drawn)"
  measured: "<50%"
- compound: "O=C(Oc1c(CN2CCOCC2)cc(Cl)c2cccnc12)c1ccccc1"
  measured: "<50%"
- compound: "Oc1c(C(c2ccc(Cl)cc2)N2CCOCC2)cc(Cl)c2cccnc12 (stereo not drawn)"
  measured: "<50%"

====

- tested.on: human ferroportin (Fpn-HaloTag fusion protein) (Homo sapiens, UniProt Q9NP59)
- Sequence (Q9NP59 whole entry, the tested form may be a part): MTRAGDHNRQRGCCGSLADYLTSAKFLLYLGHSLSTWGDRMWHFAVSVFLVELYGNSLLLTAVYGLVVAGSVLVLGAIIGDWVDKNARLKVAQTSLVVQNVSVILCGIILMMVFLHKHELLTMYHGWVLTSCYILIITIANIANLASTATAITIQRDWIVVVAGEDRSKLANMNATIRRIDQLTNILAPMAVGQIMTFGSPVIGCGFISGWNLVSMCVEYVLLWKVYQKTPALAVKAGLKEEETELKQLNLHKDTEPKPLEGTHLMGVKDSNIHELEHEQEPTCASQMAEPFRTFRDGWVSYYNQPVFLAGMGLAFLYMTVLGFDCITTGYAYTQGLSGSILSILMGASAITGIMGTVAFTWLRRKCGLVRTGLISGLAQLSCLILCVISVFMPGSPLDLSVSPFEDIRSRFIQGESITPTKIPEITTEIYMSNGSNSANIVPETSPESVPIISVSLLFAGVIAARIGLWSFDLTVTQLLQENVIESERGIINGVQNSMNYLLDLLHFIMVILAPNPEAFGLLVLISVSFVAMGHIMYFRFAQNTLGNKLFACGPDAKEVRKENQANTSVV
- measurement.description: ferroportin internalization assay (inhibition of hepcidin-induced internalization of Fpn, MDCK-FPN-HaloTag cells)
- test.context: 100 nM hepcidin, overnight, dilution series 0.04 to 40 μM

- compound: "CC1CN(C(c2ccncc2)c2ccc3cccnc3c2O)CC(C)O1 (stereo not drawn) [Example 18]"
  IC50: "< 50 µM"
- compound: "Oc1c(C(c2cnccn2)N2CCOCC2)ccc2cccnc12 (stereo not drawn) [Example 15]"
  IC50: "< 50 µM"
- compound: "Oc1c(C(Nc2ccccn2)c2cccnc2)cc(Cl)c2cccnc12 (stereo not drawn) [Example 6]"
  IC50: "< 50 µM"
